Biological target: T1, Human PD-L1 Fc-fusion protein (R&D Systems, 156-B7) (Homo sapiens, UniProt Q9NZQ7)
T1 construct: programmed death-ligand 1 (PD-L1, B7-H1, CD274), human; also called huPD-L1; B7-H1; source: bought: R&D Systems (156-B7)
T1 sequence (Q9NZQ7 19-238): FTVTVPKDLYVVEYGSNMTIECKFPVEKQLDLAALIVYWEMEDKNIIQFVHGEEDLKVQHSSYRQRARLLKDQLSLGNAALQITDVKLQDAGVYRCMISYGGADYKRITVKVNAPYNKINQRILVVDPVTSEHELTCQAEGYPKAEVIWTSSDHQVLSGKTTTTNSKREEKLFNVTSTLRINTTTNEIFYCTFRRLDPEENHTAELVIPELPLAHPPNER
Test: SPR; Biacore T200, 25°C, HBS (0.01 M HEPES pH 7.4, 0.15 M NaCl, 3 mM EDTA, 0.005% Tween 20); mouse or human PD-L1 Fc-fusion protein amine-coupled on a CM5 chip (650-900 RU); Nb in crude periplasmic extract as analyte, its concentration estimated by CFCA; 9 dilutions, 120 s association, 160 s dissociation; 1-to-1 fit; affinity estimations
Settings: one partner purified
Parameter: pKd
// returns pKd (minus log10 of molar concentration), number only

INSERT INTO results (binder, test_result) VALUES
  ('Nb C16 (HA-tagged, in periplasmic extract) (VHH, source: E. coli WK6 (pHEN4), crude periplasmic extract) VHH: QVQLQESGGGLVQAGGSLKVSCAVSGSTVSSSTMAWWRQTPGNQRELVALVDSGGKSNYVDSVKGRFTISTDNAKNTMYLQMNSLKPEDTAVYYCRILSVKGIWYWGQGTQVTVSS', 6.28);

With those in mind, consider the next binder.
Using the record for Nb C4 (HA-tagged, in periplasmic extract) (VHH, source: E. coli WK6 (pHEN4), crude periplasmic extract) VHH: QVQLQESGGGLVQPGGSLRLSCAASGSTVSSSMMAWWRQTPGNQRELVALVASGNNTNYVDSVKGRFTVSRDNAKNTMYLQMNGLKPEDTAVYYCRLSVNGIWYWGQGTQVTVSS , report its pKd.
6.47

Values were extracted from paper PMC5522039.
